The reported numbers originate from patent US4374846A.

Exercise: state measured LD50 at 168 h for each of the compounds provided.
ASSAY TEXT: Determination of the acute toxicity (seven-day, single intraperitoneal dose)
CONDITION PARAMETERS: in vivo, ip, white NMRI mouse, fasting, single i.p. dose, probit analysis
Answers are plain numbers, in mg/kg.

Reference set (4 entries):
> print(dat)
                                   compound  test.value
1  COC(=O)c1c(OC(C)C)c2cc(C)ccc2n1CCN(C)C.Cl [(D)]         137
2  CCOc1c(C(=O)OC)n(CCN(C)C)c2ccc(Cl)cc12.Cl [(C)]         141
3  COC(=O)c1c(OC)c2ccccc2n1CCCN1CCCCC1 [(I)]         141
4    COc1c(C(=O)O)n(CCN(C)C)c2ccccc12 [(K)]         967

Name the reported LD50 at 168 h value associated with the compound COC(=O)c1c(OC)c2ccccc2n1CCN(C)C.Cl [(A)]
171
